# MEASURED_TARGET: MaxL homodimer (Homo sapiens, UniProt P61244 1-160)
# Sequence (P61244 whole entry): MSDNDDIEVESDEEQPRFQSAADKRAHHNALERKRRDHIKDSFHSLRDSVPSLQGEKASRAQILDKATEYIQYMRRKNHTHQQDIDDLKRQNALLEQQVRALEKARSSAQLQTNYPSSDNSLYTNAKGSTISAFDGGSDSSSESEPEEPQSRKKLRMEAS
# TEST_DESCRIPTION: universal protein-binding microarray (PBM); PBS-based mixture, 10 nM His-tagged protein dimer, 2% milk, 200 ng/uL BSA, 50 ng/uL salmon testes DNA, 0.02% TX-100; detection with Alexa 488 anti-His antibody;; high values mean tight binding;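 also: fluorescence intensity normalized to that of the highest-ranked 8-mer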
# EXPERIMENTAL_PARAMETERS: protein: recombinant; tags: C-terminal His-tag (pET21a); chain copies: 2; dsDNA, one strand shown
Over roughly 33,000 sequences, “normalized occupancy” has its median near 0.075; the highest 2% begin near 0.095. Shown is part of a subset that was picked to be rich in the highest values.
# if measured binding signal < 0.08 normalized occupancy: Criterion met  # else: Criterion not met

Query block: Determine whether this sequence shows binding signal lower than 0.08 normalized occupancy (ties excluded): `GCATGCGC`
Result block: Criterion not met

Query block: Hi there! Is binding signal for `CCGTGGAC` below 0.08 normalized occupancy, do you know?
Result block: Criterion met

Query block: Please let me know if `GTGGACGA` shows binding signal below 0.08 normalized occupancy.
Result block: Criterion met

Query block: binding signal strictly < 0.08 normalized occupancy for this sequence? `AAATGCGC`
Result block: Criterion met

Query block: Determine whether this sequence shows binding signal lower than 0.08 normalized occupancy (ties excluded): `GAATGCGC`
Result block: Criterion met

Query block: Record `CTCGTGGC` : is its binding signal strictly below 0.08 normalized occupancy?
Result block: Criterion not met

Query block: Identify whether the sequence `AGAGATAA` records binding signal below 0.08 normalized occupancy.
Result block: Criterion met

Query block: Is the reported binding signal for `AATGCATG` strictly below 0.08 normalized occupancy?
Result block: Criterion not met

* * *

# MEASURED_TARGET: MaxL homodimer (Homo sapiens, UniProt P61244 1-160)
# TEST_DESCRIPTION: universal protein-binding microarray (PBM); PBS-based mixture, 10 nM His-tagged protein dimer, 2% milk, 200 ng/uL BSA, 50 ng/uL salmon testes DNA, 0.02% TX-100; detection with Alexa 488 anti-His antibody;; high values mean tight binding;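 also: fluorescence intensity normalized to that of the highest-ranked 8-mer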
# EXPERIMENTAL_PARAMETERS: protein: recombinant; tags: C-terminal His-tag (pET21a); chain copies: 2; dsDNA, one strand shown
In all, about 33,000 sequences were measured (“normalized occupancy”: median about 0.075, highest 2% from about 0.095 on). The entries come from a sample that favours the highest values as a whole.
Output TRUE for records whose binding signal is lower than 0.08 normalized occupancy, FALSE for records at or above 0.08 normalized occupancy.

{"SEQ_STRING": "CCAAACGC", "MEASURED_TARGET": "MaxL homodimer (Homo sapiens, UniProt P61244 1-160)", "ANSWER_LABEL": "TRUE"}
{"SEQ_STRING": "GATTTTTA", "MEASURED_TARGET": "MaxL homodimer (Homo sapiens, UniProt P61244 1-160)", "ANSWER_LABEL": "TRUE"}
{"SEQ_STRING": "AGGGAGCG", "MEASURED_TARGET": "MaxL homodimer (Homo sapiens, UniProt P61244 1-160)", "ANSWER_LABEL": "TRUE"}
{"SEQ_STRING": "GCAATCAC", "MEASURED_TARGET": "MaxL homodimer (Homo sapiens, UniProt P61244 1-160)", "ANSWER_LABEL": "TRUE"}
{"SEQ_STRING": "CTAGTGGC", "MEASURED_TARGET": "MaxL homodimer (Homo sapiens, UniProt P61244 1-160)", "ANSWER_LABEL": "TRUE"}
{"SEQ_STRING": "AACGCATT", "MEASURED_TARGET": "MaxL homodimer (Homo sapiens, UniProt P61244 1-160)", "ANSWER_LABEL": "TRUE"}

Query block: Would you kindly verify if binding signal of `AACCCCTC` is strictly less than 0.08 normalized occupancy?
Result block: TRUE

Query block: binding signal strictly < 0.08 normalized occupancy for this sequence? `CGCAACTA`
Result block: TRUE

Query block: For `CGCGTGAA` , is the recorded binding signal below the cut-off of 0.08 normalized occupancy?
Result block: FALSE

Query block: I wonder whether `ATAGCGCC` has binding signal below 0.08 normalized occupancy. Can you tell?
Result block: TRUE

Query block: Is binding signal strictly under 0.08 normalized occupancy for the entry `CCCGTGAG` ?
Result block: TRUE

Query block: # strict comparison: is reported binding signal < 0.08 normalized occupancy? input = `GATGCTTA`
Result block: TRUE

Query block: hey, is binding signal for `TCATGCGA` lower than 0.08 normalized occupancy or not?
Result block: FALSE

* * *

Overview of recorded binding signal for various sequences
# MEASURED_TARGET: MaxL homodimer (Homo sapiens, UniProt P61244 1-160)
# TEST_DESCRIPTION: universal protein-binding microarray (PBM); PBS-based mixture, 10 nM His-tagged protein dimer, 2% milk, 200 ng/uL BSA, 50 ng/uL salmon testes DNA, 0.02% TX-100; detection with Alexa 488 anti-His antibody;; high values mean tight binding;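 also: fluorescence intensity normalized to that of the highest-ranked 8-mer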
# EXPERIMENTAL_PARAMETERS: protein: recombinant; tags: C-terminal His-tag (pET21a); chain copies: 2; dsDNA, one strand shown
In all, about 33,000 sequences were measured (“normalized occupancy”: median about 0.075, highest 2% from about 0.095 on). What follows is part of a selection rich in the highest values, with near analogues and random picks from the rest.
Respond numerically; units are normalized occupancy and should not be typed.

{"SEQ_STRING": "CCTGCATC", "MEASURED_TARGET": "MaxL homodimer (Homo sapiens, UniProt P61244 1-160)", "RECORDED_ENDPOINT": "binding signal", "VALUE_UNITS": "normalized occupancy", "OBS_VALUE": 0.0807}
{"SEQ_STRING": "AAGAAGGA", "MEASURED_TARGET": "MaxL homodimer (Homo sapiens, UniProt P61244 1-160)", "RECORDED_ENDPOINT": "binding signal", "VALUE_UNITS": "normalized occupancy", "OBS_VALUE": 0.0794}
{"SEQ_STRING": "GTCAGCAC", "MEASURED_TARGET": "MaxL homodimer (Homo sapiens, UniProt P61244 1-160)", "RECORDED_ENDPOINT": "binding signal", "VALUE_UNITS": "normalized occupancy", "OBS_VALUE": 0.0806}
{"SEQ_STRING": "GGTAACGA", "MEASURED_TARGET": "MaxL homodimer (Homo sapiens, UniProt P61244 1-160)", "RECORDED_ENDPOINT": "binding signal", "VALUE_UNITS": "normalized occupancy", "OBS_VALUE": 0.0778}
{"SEQ_STRING": "ACGTCGTC", "MEASURED_TARGET": "MaxL homodimer (Homo sapiens, UniProt P61244 1-160)", "RECORDED_ENDPOINT": "binding signal", "VALUE_UNITS": "normalized occupancy", "OBS_VALUE": 0.0822}

Query block: Entry `AATGCTGC` has what binding signal?
Result block: 0.0788

Query block: For the sequence `CACATACG` , what binding signal is on record?
Result block: 0.0784

Query block: Fill in the blank: the reported binding signal of `AGTAGTAG` is ____.
Result block: 0.0786

Query block: For `CGGGTGAC` , what is its reported binding signal?
Result block: 0.0779

* * *

# MEASURED_TARGET: MaxL homodimer (Homo sapiens, UniProt P61244 1-160)
# TEST_DESCRIPTION: universal protein-binding microarray (PBM); PBS-based mixture, 10 nM His-tagged protein dimer, 2% milk, 200 ng/uL BSA, 50 ng/uL salmon testes DNA, 0.02% TX-100; detection with Alexa 488 anti-His antibody;; high values mean tight binding;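 also: fluorescence intensity normalized to that of the highest-ranked 8-mer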
# EXPERIMENTAL_PARAMETERS: protein: recombinant; tags: C-terminal His-tag (pET21a); chain copies: 2; dsDNA, one strand shown
Over roughly 33,000 sequences, “normalized occupancy” has its median near 0.075; the highest 2% begin near 0.095. This excerpt belongs to a sample that is enriched for the highest values.
RECORDED_ENDPOINT: binding signal (normalized occupancy)
Give just the number in normalized occupancy; leave the unit off.

Worked cases, binding signal given:
{"SEQ_STRING": "GGATGCGA", "VALUE_UNITS": "normalized occupancy", "OBS_VALUE": 0.0783}
{"SEQ_STRING": "ATGCCCCA", "VALUE_UNITS": "normalized occupancy", "OBS_VALUE": 0.0786}
{"SEQ_STRING": "CTACTGTC", "VALUE_UNITS": "normalized occupancy", "OBS_VALUE": 0.0719}
{"SEQ_STRING": "ATGCATCG", "VALUE_UNITS": "normalized occupancy", "OBS_VALUE": 0.0835}
{"SEQ_STRING": "GCATGCGA", "VALUE_UNITS": "normalized occupancy", "OBS_VALUE": 0.119}

Query block: Param item = `AGGTGGAT` ; retrieve measured binding signal.
Result block: 0.08

Query block: What measured binding signal goes with `CATGCTGC` ?
Result block: 0.122
